Test: Aqueous solubility
ATTRIBUTE MEASURED: solubility (µM)

[[record]]
compound = "COc1ccc(N(C(=O)CCl)C(C(=O)NCS(=O)(=O)c2ccc(C)cc2)c2cccs2)cc1Cl (centres unmarked) [Compound 1q]"
result_modifier = "="
val = 16

[[record]]
compound = "COc1ccc(N(C(=O)CCl)C(C(=O)NCCc2ccccc2)c2cccs2)cc1Cl (centres unmarked) [Compound 1a]"
result_modifier = "<"
val = 1

